Tested on: C. glabrata 2375E
Assay: in vitro antifungal MIC, two-fold serial dilution
Assay type: cell-based, Candida glabrata
readoutType: MIC (minimum inhibiting concentration) (µg/mL)
Enter your answer as a number in µg/mL; do not include the unit.

**Q:** Any idea what MIC (minimum inhibiting concentration) was measured for COC1C(C)OC(OCC23CC4C(C)CCC4C4(C=O)CC2C=C(C(C)C)C43C(=O)O)C2SC12 (stereo not shown) ?
**A:** 16.00

**Q:** Query: MIC (minimum inhibiting concentration); subject: C=CCOC1C(C)OC(OCC23CC4C(C)CCC4C4(C=O)CC2C=C(C(C)C)C43C(=O)O)C2OC12 (stereo not shown)
**A:** 31.00

**Q:** What MIC (minimum inhibiting concentration) value was documented for this molecule, CC(C)C1=CC2CC3(C=O)C4CCC(C)C4CC2(COC2OC(C)C(OCc4ccccc4)C4OC24)C13C(=O)O (stereo not shown) ?
**A:** 8.00

**Q:** Consider the molecule CC(C)C1=CC2CC3(C=O)C4CCC(C)C4CC2(COC2CC4C(=O)COC4C(C)O2)C13C(=O)O (stereo not shown) and give its measured MIC (minimum inhibiting concentration).
**A:** 4.00

**Q:** # query: MIC (minimum inhibiting concentration) of entry CC(C)C1=CC2CC3(C=O)C4CCC(C)C4CC2(COC2OC(C)C4OC(C)(C)OC4C2O)C13C(=O)O (stereo not shown)
**A:** 31.00

**Q:** Tell me the measured MIC (minimum inhibiting concentration) of CC(C)C1=CC2CC3(C=O)C4CCC(C)C4CC2(COC2CC4OCOC4C(C)O2)C13C(=O)[O-].[Na+] (stereo not shown) , please.
**A:** 8.00

**Q:** Data request, read-out MIC (minimum inhibiting concentration), for CC(C)C(=O)OC1C(C)OC(OCC23CC4C(C)CCC4C4(C=O)CC2C=C(C(C)C)C43C(=O)O)C2OC12 (stereo not shown)
**A:** 16.0

====

Kindly state MIC (minimum inhibiting concentration) for each of the entries shown.
Test system: C. albicans 1208E
Test: in vitro antifungal MIC, two-fold serial dilution
Assay type: cell-based, Candida albicans
Hi! Could you send only the number? It should be in ng/mL, unit omitted.

**Q:** What measured MIC (minimum inhibiting concentration) goes with C=CCOC1C(C)OC(OCC23CC4C(C)CCC4C4(C=O)CC2C=C(C(C)C)C43C(=O)O)C2OC12 (stereo not drawn) ?
**A:** 60

**Q:** I have this molecule here, CC(C)C1=CC2CC3(C=O)C4CCC(C)C4CC2(COC2CC4=CCOC4C(C)O2)C13C(=O)O (stereo not drawn) , and I need its recorded MIC (minimum inhibiting concentration).
**A:** 1

**Q:** Consider the molecule shown here: CC(C)C1=CC2CC3(C=O)C4CCC(C)C4CC2(COC2CC4OCOC4C(C)O2)C13C(=O)[O-].[Na+] (stereo not drawn) What is its recorded MIC (minimum inhibiting concentration)?
**A:** 15

**Q:** For C=C1COC2C(C)OC(OCC34CC5C(C)CCC5C5(C=O)CC3C=C(C(C)C)C54C(=O)[O-])CC12.[Na+] (stereo not drawn) , what is its reported MIC (minimum inhibiting concentration)?
**A:** 1

**Q:** Fill in: MIC (minimum inhibiting concentration) of CC(C)C1=CC2CC3(C=O)C4CCC(C)C4CC2(COC2OC(C)C4OC(C)(C)OC4C2O)C13C(=O)O (stereo not drawn) is ___
**A:** 500

Source of measurements: patent US5854280A
